# tgt: Shiga toxin 2 (Escherichia coli O157:H7) (UniProt P09385+P09386)
# assay.explanation: E. coli 0.157:H7 Shiga Toxin SOP - stx2 screening assay
# Format: functional
# Parameters: scale not given: direction of the effect not stated beside the values
# condition.notes: 30 µM
measured.endpoint: Percent Effect (%)
Answer with a number only, understood to be in %.

>  <molecule>
COc1ccc(CNCc2c(C)nn(C)c2N2CCOCC2)cc1

>  <observed.result>
14.4

$$$$
>  <molecule>
CCc1nc(CN2CCN(C(=O)Cc3c(C)noc3C)CC2)cs1

>  <observed.result>
-8.34

$$$$
>  <molecule>
CNc1cc2c(nn1)CCN(C(=O)c1ccc(-n3nccc3C)cc1)C2

>  <observed.result>
26.8

$$$$

# input Give the measured Percent Effect of CCc1ccc(C(=O)N2CCCC(c3noc(CC)n3)C2)o1 (stereo not given) .
# output 10.6

# input Give the measured Percent Effect of O=C(Nc1cc(C(F)(F)F)c[nH]c1=O)N1CCCSCC1 .
# output 8.92

----------
# tgt: Aspartate--tRNA(Asp/Asn) ligase (Mycobacterium tuberculosis (strain ATCC 25618 / H37Rv))
# assay.explanation: Assay for Asp RNA synthetase-1 from Mycobacterium tuberculosis
# Format: functional
# Design: scale not given: direction of the effect not stated beside the values
# condition.notes: 30 µM
measured.endpoint: Percent Effect (%)
Answer with a number only, understood to be in %.

>  <molecule>
Cc1ncccc1OC1(C(=O)NCCNc2ccccc2)CCNCC1

>  <tgt>
Aspartate--tRNA(Asp/Asn) ligase (Mycobacterium tuberculosis (strain ATCC 25618 / H37Rv)); further: in the data most compounds retested in dose-response had high values

>  <observed.result>
-0.792

$$$$

# input Give the measured Percent Effect of O=C([C@H]1CCCO1)N1CC[C@H](O)[C@@H]1Cc1ccncc1 .
# output -1.01

# input Give the measured Percent Effect of Cc1ccc(C(=O)N(C)Cc2cc(Br)cs2)c(=O)[nH]1 .
# output 0.749

# input Give the measured Percent Effect of Cc1nc(C2CCCN(C(=O)c3cccc4c3OCO4)C2)no1 (stereo unspecified) .
# output 5.25

# input Give the measured Percent Effect of CSc1ccccc1CN1CCCn2nc(CNC(=O)N(C)C)cc2C1 .
# output 2.53

# input Give the measured Percent Effect of CNC(=O)c1cc2c(nc1NC(C)C)CCN(C(=O)NC(C)C)CC2 .
# output -2.07

# input Give the measured Percent Effect of CN(C)CCNC(=O)c1ccc(OC2CCN(S(C)(=O)=O)CC2)c(Cl)c1 .
# output 1.85

# input Give the measured Percent Effect of Cc1noc2ncc(C(=O)N3CCCC3c3ccncc3)cc12 (stereo unspecified) .
# output -7.22

# input Give the measured Percent Effect of CCCN(Cc1ccccc1)Cn1nc(C)c2c(C)onc2c1=O .
# output 9.28

# input Give the measured Percent Effect of Cc1nc(C)n(CC2CCCN(c3ncnc4c3CCC4)C2)n1 (stereo unspecified) .
# output 2.14

# input Give the measured Percent Effect of CCCC(=O)Nc1sc(C(=O)OCC)c(C)c1C#N .
# output -1.82

# input Give the measured Percent Effect of O=C(Cc1ccsc1)N1C[C@@H]2CN(Cc3ccoc3)CCO[C@@H]2C1 .
# output -1.48

# input Give the measured Percent Effect of COc1ccccc1CC(=O)NS(=O)(=O)c1cncc(Br)c1 .
# output -6.19

# input Give the measured Percent Effect of CCCNC(=O)Nc1cccc2c1CCN(S(C)(=O)=O)C2 .
# output 6.02
